- Tested on: HT-1080
- Experiment summary: Antiproliferative activity against human HT1080 cells after 3 days by SRB assay
- Condition set: Homo sapiens, HT-1080, 72 h
Measurement kind: IC50 (µM)
Output spec: scalar in µM, unitless text.

Molecular string	Measurement kind	Endpoint unit	Reported measurement
COc1ccc(C(=O)Nc2ccc(CNc3ccc(-c4nc5ccccc5[nH]4)cc3F)cc2)cc1Br	IC50	µM	8.7

Kindly review the next molecule as well.
Just so you know, measured IC50 for COc1ccc(C(=O)Nc2ccc(CNc3ccc(-c4nc5ccccc5[nH]4)cc3)cc2)cc1Br came out at 3.1

----------
- Test system: A204
- Experiment summary: Antiproliferative activity against human A204 cells after 72 hrs by cell counting analysis
- Condition set: A204, 72 h
Measurement kind: IC50

Just so you know, measured IC50 for COc1ccc(C(=O)Nc2ccc(CNc3ccc(-c4nc5ccccc5[nH]4)cc3F)cc2)cc1Br came out at 3.4 µM

----------
Entries and their pIC50 values follow.
- Test system: U2OS
- Experiment summary: Antiproliferative activity against human U2OS cells after 3 days by SRB assay
- Condition set: Homo sapiens, U2OS, 72 h
Notebook: values listed as pIC50 are -log10 of the concentration (mol/L).

Molecular string	pIC50
COc1ccc(C(=O)Nc2ccc(CNc3ccc(-c4nc5ccccc5[nH]4)cc3)cc2)cc1Br	5.68

Kindly review the next compound as well.
Readout pIC50 for COc1ccc(C(=O)Nc2ccc(CNc3ccc(-c4nc5ccccc5[nH]4)cc3F)cc2)cc1Br , test system U2OS, was 5.77

----------
Entries and their pIC50 values follow.
- Assay target: Heparanase (Homo sapiens)
- Sequence (Q9Y251 36-109 limits assumed): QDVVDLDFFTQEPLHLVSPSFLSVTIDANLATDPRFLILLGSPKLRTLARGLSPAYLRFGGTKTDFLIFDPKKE
- Sequence (Q9Y251 158-543 limits assumed): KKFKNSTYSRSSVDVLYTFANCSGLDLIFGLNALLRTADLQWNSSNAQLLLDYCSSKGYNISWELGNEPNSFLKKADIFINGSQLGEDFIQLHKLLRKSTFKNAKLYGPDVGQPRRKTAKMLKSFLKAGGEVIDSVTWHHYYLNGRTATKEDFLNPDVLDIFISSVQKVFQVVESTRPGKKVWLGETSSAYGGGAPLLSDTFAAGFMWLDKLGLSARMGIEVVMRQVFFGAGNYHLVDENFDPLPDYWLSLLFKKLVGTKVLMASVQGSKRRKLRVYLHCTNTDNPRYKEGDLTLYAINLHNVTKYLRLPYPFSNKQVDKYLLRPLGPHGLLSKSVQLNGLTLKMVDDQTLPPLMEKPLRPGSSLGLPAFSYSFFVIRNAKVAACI
- Experiment summary: Inhibition of recombinant HPSE GS3 (unknown origin) using fondaparinux as substrate incubated for 3 hrs in absence of light by WST1 based colorimetry
pIC50: −log10 of the molar value.

Sample answers from the record:
Molecular string	pIC50
COc1ccc(C(=O)Nc2ccc(CNc3ccc(-c4nc5cc(CC(=O)NCC(=O)O)ccc5[nH]4)cc3F)cc2)cc1Br	6.19
COc1ccc(C(=O)Nc2ccc(CNc3ccc(-c4nc5cc(CC(=O)O)ccc5[nH]4)cc3)cc2)cc1Br	< 5.00
COc1ccc(C(=O)Nc2ccc(CNc3ccc(-c4nc5cc(CC(=O)NCB(O)O)ccc5o4)cc3F)cc2)cc1Br	< 5.00
COc1ccc(C(=O)Nc2ccc(CNc3ccc(-c4nc5cc(CC(=O)O)ccc5o4)cc3)cc2)cc1Br	< 5.00

Just so you know, measured pIC50 for COc1ccc(C(=O)Nc2ccc(CNc3ccc(-c4nc5cc(CC(=O)N[C@@H](CCCCN)C(=O)O)ccc5o4)cc3F)cc2)cc1Br came out at < 5.00
